target: PDC-3 (Pseudomonas aeruginosa, UniProt P24735, T105A); construct: The PDC-3 expression construct was created in a similar manner but starting with a previously described pBC SK(−) vector; experiment: Competitive inhibition assay with nitrocefin (Ki app, IC50), PDC-3; conditions: nitrocefin reporter substrate
Measurement Kind: Ki (nM)
Record the value in nM, omitting the unit from your answer.

Observed Ki on PDC-3 (Pseudomonas aeruginosa, UniProt P24735, T105A) for NCCN[C@H]1CC[C@H](CC(=O)N[C@H]2Cc3cccc(C(=O)O)c3OB2O)CC1 [TAN, taniborbactam] , please.
660

====

molecular target: PDC-3 (Pseudomonas aeruginosa, UniProt P24735, T105A); construct: The PDC-3 expression construct was created in a similar manner but starting with a previously described pBC SK(−) vector; assay: Competitive inhibition assay with nitrocefin (Ki app, IC50), PDC-3; conditions: nitrocefin reporter substrate, 5 min preincubation
Measurement Kind: IC50 (nM)
Please respond with the number in nM and leave the unit unwritten.

So what does the record say about IC50 for NCCN[C@H]1CC[C@H](CC(=O)N[C@H]2Cc3cccc(C(=O)O)c3OB2O)CC1 [TAN, taniborbactam] ?
16

# credit: paper PMC12217481
